tested on: L1210; assay: Antitumor activity against mouse L1210 cells allografted in ip dosed mouse assessed as increase in life span at optimal dose administered qd from day 1 to 5 of challenge relative to control; format: functional
Overview of reported Increase in life span across a group of compounds:
MEASURED_METRIC: Increase in life span (%)

[[record]]
smiles_repr = "COc1cc(Nc2c3ccccc3nc3ncccc23)ccc1NS(C)(=O)=O"
measured_metric = "Increase in life span"
meas_value = 89

[[record]]
smiles_repr = "CS(=O)(=O)Nc1ccc(Nc2c3ccccc3nc3ccc(N)cc23)cc1"
measured_metric = "Increase in life span"
meas_value = 78

[[record]]
smiles_repr = "CS(=O)(=O)Nc1ccc(Nc2c3ccccc3nc3cc(N)ccc23)cc1"
measured_metric = "Increase in life span"
meas_value = 81

[[record]]
smiles_repr = "CS(=O)(=O)Nc1ccc(Nc2c3ccccc3nc3cc([N+](=O)[O-])ccc23)cc1"
measured_metric = "Increase in life span"
meas_value = 123

[[record]]
smiles_repr = "CS(=O)(=O)Nc1ccc(Nc2c3ccccc3nc3ccccc23)cc1"
measured_metric = "Increase in life span"
meas_value = 107

[[record]]
smiles_repr = "COc1cc(Nc2c3ccccc3nc3c([N+](=O)[O-])cccc23)ccc1NS(C)(=O)=O"
measured_metric = "Increase in life span"
meas_value = 38

[[record]]
smiles_repr = "COc1cc(Nc2c3ccccc3nc3cnccc23)ccc1NS(C)(=O)=O"
measured_metric = "Increase in life span"
meas_value = 88

[[record]]
smiles_repr = "CS(=O)(=O)Nc1ccc(Nc2c3ccccc3nc3ccc([N+](=O)[O-])cc23)cc1"
measured_metric = "Increase in life span"
meas_value = 27

[[record]]
smiles_repr = "COc1cc(Nc2c3ccccc3nc3cc([N+](=O)[O-])ccc23)ccc1NS(C)(=O)=O"
measured_metric = "Increase in life span"
meas_value = 84

[[record]]
smiles_repr = "COc1cc(Nc2c3ccccc3nc3cccc([N+](=O)[O-])c23)ccc1NS(C)(=O)=O"
measured_metric = "Increase in life span"
meas_value = 44


* * *

Overview of reported pKa across a group of compounds:
test: Ionization constant, pKa of the compound in 20% DMF-buffer mixture by UV spectrophotometry; type: physicochemical
MEASURED_METRIC: pKa

[[record]]
smiles_repr = "COc1cc(Nc2c3ccccc3nc3cccc([N+](=O)[O-])c23)ccc1NS(C)(=O)=O"
measured_metric = "pKa"
meas_value = 4.98

[[record]]
smiles_repr = "CS(=O)(=O)Nc1ccc(Nc2c3ccccc3nc3cccc([N+](=O)[O-])c23)cc1"
measured_metric = "pKa"
meas_value = 4.79

[[record]]
smiles_repr = "CS(=O)(=O)Nc1ccc(Nc2c3ccccc3nc3cc(N)ccc23)cc1"
measured_metric = "pKa"
meas_value = 9.8

[[record]]
smiles_repr = "CS(=O)(=O)Nc1ccc(Nc2c3ccccc3nc3cccnc23)cc1"
measured_metric = "pKa"
meas_value = 6.9

[[record]]
smiles_repr = "COc1cc(Nc2c3ccccc3nc3ccncc23)ccc1NS(C)(=O)=O"
measured_metric = "pKa"
meas_value = 5.84

[[record]]
smiles_repr = "COc1cc(Nc2c3ccccc3nc3cnccc23)ccc1NS(C)(=O)=O"
measured_metric = "pKa"
meas_value = 5.53

[[record]]
smiles_repr = "COc1cc(Nc2c3ccccc3nc3cccnc23)ccc1NS(C)(=O)=O"
measured_metric = "pKa"
meas_value = 7.19

[[record]]
smiles_repr = "CS(=O)(=O)Nc1ccc(Nc2c3ccccc3nc3cc([N+](=O)[O-])ccc23)cc1"
measured_metric = "pKa"
meas_value = 5.52

[[record]]
smiles_repr = "CS(=O)(=O)Nc1ccc(Nc2c3ccccc3nc3cnccc23)cc1"
measured_metric = "pKa"
meas_value = 5.32

[[record]]
smiles_repr = "CS(=O)(=O)Nc1ccc(Nc2c3ccccc3nc3c([N+](=O)[O-])cccc23)cc1"
measured_metric = "pKa"
meas_value = 4.88


* * *

assay: Lipophilic-hydrophilic balance, Rm of the compound by reversed-phase partition chromatography; assay type: physicochemical
Overview of reported Rm across a group of compounds:
MEASURED_METRIC: Rm

[[record]]
smiles_repr = "CS(=O)(=O)Nc1ccc(Nc2c3ccccc3nc3ccc([N+](=O)[O-])cc23)cc1"
meas_value = -0.21

[[record]]
smiles_repr = "CS(=O)(=O)Nc1ccc(Nc2c3ccccc3nc3cccnc23)cc1"
meas_value = -0.56

[[record]]
smiles_repr = "CS(=O)(=O)Nc1ccc(Nc2c3ccccc3nc3ccccc23)cc1"
meas_value = 0

[[record]]
smiles_repr = "CS(=O)(=O)Nc1ccc(Nc2c3ccccc3nc3c([N+](=O)[O-])cccc23)cc1"
meas_value = -0.17

[[record]]
smiles_repr = "COc1cc(Nc2c3ccccc3nc3cnccc23)ccc1NS(C)(=O)=O"
meas_value = -0.13

[[record]]
smiles_repr = "CS(=O)(=O)Nc1ccc(Nc2c3ccccc3nc3ncccc23)cc1"
meas_value = -0.27

[[record]]
smiles_repr = "COc1cc(Nc2c3ccccc3nc3ccc([N+](=O)[O-])cc23)ccc1NS(C)(=O)=O"
meas_value = -0.06

[[record]]
smiles_repr = "COc1cc(Nc2c3ccccc3nc3cc([N+](=O)[O-])ccc23)ccc1NS(C)(=O)=O"
meas_value = 0.11

[[record]]
smiles_repr = "CS(=O)(=O)Nc1ccc(Nc2c3ccccc3nc3cc([N+](=O)[O-])ccc23)cc1"
meas_value = -0.17

[[record]]
smiles_repr = "COc1cc(Nc2c3ccccc3nc3c([N+](=O)[O-])cccc23)ccc1NS(C)(=O)=O"
meas_value = 0.09

